Numbers sourced from patent US7112318B2.

# assay-details: Biodistribution in mice 60 min after i.v. injection
# run-conditions: 60 min after iv. injection
endpoint-label: biodistribution, lung (% ID/g)

Answered examples (2):
>>> measured_number("[99Tc].[C-]#[N+]CC(C)(C)OC.[C-]#[N+]CC(C)(C)OC.[C-]#[N+]CC(C)(C)OC.[C-]#[N+]CC(C)(C)OC.[C-]#[N+]CC(C)(C)OC.[C-]#[N+]CC(C)(C)OC [[^99mTc]MIBI, Tc-99m-sestamibii, reference compound]")
0.98
>>> measured_number("[11CH3][P+](c1ccccc1)(c1ccccc1)c1ccccc1 [[11C]TPMP, C-11-triphenylmethyl phosphonium]")
2.20

A: [18F]CCC[P+](c1ccccc1)(c1ccccc1)c1ccccc1 [[18F]FPTP]
B: [18F]c1ccc(C[P+](c2ccccc2)(c2ccccc2)c2ccccc2)cc1
Prompt line: For A and B , which recorded biodistribution, lung is lower? Kindly state the label of the option you pick.
Response line: A
(A: 2.02 % ID/g, B: 7.38 % ID/g)

* * *

# assay-details: Biodistribution in mice 60 min after i.v. injection
# run-conditions: 60 min after iv. injection
endpoint-label: biodistribution, muscle (% ID/g)

Some compounds with recorded biodistribution, muscle:
>>> measured_number("[11CH3][P+](c1ccccc1)(c1ccccc1)c1ccccc1 [[11C]TPMP, C-11-triphenylmethyl phosphonium]")
2.49
>>> measured_number("[99Tc].[C-]#[N+]CC(C)(C)OC.[C-]#[N+]CC(C)(C)OC.[C-]#[N+]CC(C)(C)OC.[C-]#[N+]CC(C)(C)OC.[C-]#[N+]CC(C)(C)OC.[C-]#[N+]CC(C)(C)OC [[^99mTc]MIBI, Tc-99m-sestamibii, reference compound]")
1.56

P: [18F]c1ccc(C[P+](c2ccccc2)(c2ccccc2)c2ccccc2)cc1 [Example F-18-FBnTP, F-18-fluorobenzyl triphenyl phosphonium]
Q: [18F]CCC[P+](c1ccccc1)(c1ccccc1)c1ccccc1 [[18F]FPTP]
Prompt line: Lab log: flag the item ( P or Q ) with the smaller biodistribution, muscle figure. Respond with the label that goes with your answer.
Response line: Q
(Q: 2.06 % ID/g, P: 4.31 % ID/g)

* * *

# assay-details: Biodistribution in mice 60 min after i.v. injection
# run-conditions: 60 min after iv. injection
endpoint-label: biodistribution, blood (% ID/g)

I: [18F]c1ccc(C[P+](c2ccccc2)(c2ccccc2)c2ccccc2)cc1
II: [18F]CCC[P+](c1ccccc1)(c1ccccc1)c1ccccc1 [[18F]FPTP]
III: [11CH3][P+](c1ccccc1)(c1ccccc1)c1ccccc1 [[11C]TPMP, C-11-triphenylmethyl phosphonium]
IV: [99Tc].[C-]#[N+]CC(C)(C)OC.[C-]#[N+]CC(C)(C)OC.[C-]#[N+]CC(C)(C)OC.[C-]#[N+]CC(C)(C)OC.[C-]#[N+]CC(C)(C)OC.[C-]#[N+]CC(C)(C)OC [[^99mTc]MIBI, Tc-99m-sestamibii, reference compound]
Prompt line: Descending sort on biodistribution, blood required. Record the ranking as a list of labels in the requested order.
Response line: IV, III, I, II
(IV: 0.26 % ID/g, III: 0.03 % ID/g, I: 0.02 % ID/g, II: 0.01 % ID/g)
